- target: HLA-B*3501 (human)
- method: competition binding assay, purified HLA, labelled probe peptide

binder	IC50 (nM)
LPAILSPGAL (modifications not checked) […]	550
